Where these numbers come from: the supplement of paper PMC10981050

Collected cell viability values appear next to each entry.
# Test system: OCI-AML2
# RUN DESCRIPTION: cell viability relative to vehicle control; higher = less cytotoxic;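 further: after 48 h exposure read by CellTiter-Glo luminescence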
# REPORTED CONDITIONS: 10 µM; SRSF2 genotype: P95H/wt
Return type: number; implicit unit %.

- MOLECULE: "CC(=O)Nc1ccccc1 [Acetanilide (Antifebrin)]"
  cell viability / %: 105
- MOLECULE: "COC1=CC(=O)c2ccccc2C1=O [2-Methoxy-1,4-naphthoquinone]"
  cell viability / %: 36.9
- MOLECULE: "Cc1ccc(OCC(O)C(C)NC(C)C)c2c1CCC2 (stereo not given)"
  cell viability / %: 92.2

For COC(=O)N1CCN(Cc2cccc(NC(=O)Nc3ccc(C)nc3)c2F)CC1 the molecule record lists cell viability as 88.4

For O=C(O)C=CCCCCCCCO [Royal jelly acid] the molecule record lists cell viability as 110

For CC(C)Oc1ccc(-c2cnc3c(-c4ccnc5ccccc45)cnn3c2)cc1 the molecule record lists cell viability as 82.2

For Cc1cc(C(N)=O)ccc1-n1c(CCC(=O)O)ccc1-c1ccc(-n2ccnc2)cc1 the molecule record lists cell viability as 109

For CCN(CC)CCNC(=O)c1c(C)[nH]c(/C=C2\C(=O)Nc3ccc(F)cc32)c1C [Sunitinib] the molecule record lists cell viability as 0.48

For CC[C@H]1OC(=O)[C@H](C)[C@@H](O[C@H]2C[C@@](C)(OC)[C@@H](O)[C@H](C)O2)[C@H](C)[C@@H](O[C@@H]2O[C@H](C)C[C@H](N(C)C)[C@H]2O)[C@](C)(O)C[C@@H](C)/C(=N\OCOCCOC)[C@H](C)[C@@H](O)[C@]1(C)O [Roxithromycin (Roxl-150)] the molecule record lists cell viability as 93.6

For C=C(C)C1CC=C(C)CC1 (single isomer, unassigned; (+)) [(+)-Dipentene] the molecule record lists cell viability as 109

###

# Tested on: MOLM14
# RUN DESCRIPTION: cell viability relative to vehicle control; higher = less cytotoxic
# REPORTED CONDITIONS: 10 µM; SRSF2 genotype: SRSF2 P95H/wt
Structures can show the parent of a compound that is named as a salt.
Rule: measured cell viability below 90% gets fulfilled; anything equal to or greater than 90% gets not fulfilled.

- MOLECULE: "CO/N=C(\\C(=O)N[C@@H]1C(=O)N2C(C(=O)O)=C(CSc3nc(C)c(CC(=O)O)s3)CS[C@H]12)c1csc(N)n1 [Cefodizime Sodium]"
  TARGET SYSTEM: "MOLM14"
  CAT: "not fulfilled"
- MOLECULE: "CN1CCC(c2c(O)cc(O)c3c(=O)cc(-c4ccccc4Cl)oc23)C(O)C1 (stereo not given) [Flavopiridol (Alvocidib) HCl]"
  TARGET SYSTEM: "MOLM14"
  CAT: "fulfilled"
- MOLECULE: "C[C@H](Nc1ncnc2nc[nH]c12)c1cc2cccc(Cl)c2c(=O)n1-c1ccccc1"
  TARGET SYSTEM: "MOLM14"
  CAT: "fulfilled"
- MOLECULE: "Cc1ccc(-n2[nH]c(C)c(N=Nc3cccc(-c4cccc(C(=O)O)c4)c3O)c2=O)cc1C"
  TARGET SYSTEM: "MOLM14"
  CAT: "fulfilled"
- MOLECULE: "COc1ccc(-c2nc(N3CCOCC3)c3sc(CN(C)c4ncc(C(=O)NO)cn4)cc3n2)cn1"
  TARGET SYSTEM: "MOLM14"
  CAT: "fulfilled"
- MOLECULE: "Oc1ccc(Nc2nc(-c3ccc(Cl)cc3)cs2)cc1"
  TARGET SYSTEM: "MOLM14"
  CAT: "fulfilled"
- MOLECULE: "O=C(O)c1ccc(Nc2ncc3c(n2)-c2ccc(Cl)cc2C(c2c(F)cccc2F)=NC3)cc1"
  TARGET SYSTEM: "MOLM14"
  CAT: "fulfilled"
- MOLECULE: "CC(C)Oc1ccc2c(=O)c(-c3ccccc3)coc2c1"
  TARGET SYSTEM: "MOLM14"
  CAT: "not fulfilled"
- MOLECULE: "Cc1cc(NS(=O)(=O)c2ccc(N)cc2)no1 [Sulfamethoxazole]"
  TARGET SYSTEM: "MOLM14"
  CAT: "not fulfilled"
- MOLECULE: "O=C(O)c1ccccc1C(=O)Nc1ccc(-c2ccccc2)cc1"
  TARGET SYSTEM: "MOLM14"
  CAT: "not fulfilled"

Dear colleague, could you confirm whether cell viability of Cc1cc(Nc2ncc(Cl)c(Nc3ccccc3S(=O)(=O)C(C)C)n2)c(OC(C)C)cc1C1CCNCC1 falls below 90%? Thanks.
fulfilled

Dear colleague, could you confirm whether cell viability of C=CC(=O)N1CC(=Cc2ccc([N+](=O)[O-])cc2)C(=O)C(=Cc2ccc([N+](=O)[O-])cc2)C1 falls below 90%? Thanks.
fulfilled

Dear colleague, could you confirm whether cell viability of Oc1cc(CNC(=S)/C=C/c2cc(O)c(O)c(Br)c2)cc(O)c1O falls below 90%? Thanks.
fulfilled
